Test system: L929 mammalian cell line
Assay: L929 mammalian cell cytotoxicity / selectivity
Type: cell-based
Settings: parasite vs L929
PROPERTY_MEASURED: Selectivity

>>> df
                                   compound  measured
0  O=C(Nc1ccc2c(c1)B(O)OC2)c1ccc(F)cc1C(F)(F)F      ⩾136
1  [O-][S+](c1ccc(Cl)cc1)c1ccc2c(c1)B(O)OC2 (stereo not shown)       ⩾49
2  O=C(Nc1ccc2c(c1)B(O)OC2)c1ccccc1C(F)(F)F       ⩾94
3  CC1(C)OB(O)c2cc(NC(=O)c3ccc(F)cc3C(F)(F)F)ccc21      ⩾138
